Each record here notes measured maximum MFI, fold over Isotype IgG4 background.
Target: T1, human C-MET on stably transfected CHO-K1 cells (human, UniProt P08581 25-1390)
T1 construct: also called hucMET; human C-MET+ CHO-K1 cells
T1 sequence (P08581 25-1390 limits assumed): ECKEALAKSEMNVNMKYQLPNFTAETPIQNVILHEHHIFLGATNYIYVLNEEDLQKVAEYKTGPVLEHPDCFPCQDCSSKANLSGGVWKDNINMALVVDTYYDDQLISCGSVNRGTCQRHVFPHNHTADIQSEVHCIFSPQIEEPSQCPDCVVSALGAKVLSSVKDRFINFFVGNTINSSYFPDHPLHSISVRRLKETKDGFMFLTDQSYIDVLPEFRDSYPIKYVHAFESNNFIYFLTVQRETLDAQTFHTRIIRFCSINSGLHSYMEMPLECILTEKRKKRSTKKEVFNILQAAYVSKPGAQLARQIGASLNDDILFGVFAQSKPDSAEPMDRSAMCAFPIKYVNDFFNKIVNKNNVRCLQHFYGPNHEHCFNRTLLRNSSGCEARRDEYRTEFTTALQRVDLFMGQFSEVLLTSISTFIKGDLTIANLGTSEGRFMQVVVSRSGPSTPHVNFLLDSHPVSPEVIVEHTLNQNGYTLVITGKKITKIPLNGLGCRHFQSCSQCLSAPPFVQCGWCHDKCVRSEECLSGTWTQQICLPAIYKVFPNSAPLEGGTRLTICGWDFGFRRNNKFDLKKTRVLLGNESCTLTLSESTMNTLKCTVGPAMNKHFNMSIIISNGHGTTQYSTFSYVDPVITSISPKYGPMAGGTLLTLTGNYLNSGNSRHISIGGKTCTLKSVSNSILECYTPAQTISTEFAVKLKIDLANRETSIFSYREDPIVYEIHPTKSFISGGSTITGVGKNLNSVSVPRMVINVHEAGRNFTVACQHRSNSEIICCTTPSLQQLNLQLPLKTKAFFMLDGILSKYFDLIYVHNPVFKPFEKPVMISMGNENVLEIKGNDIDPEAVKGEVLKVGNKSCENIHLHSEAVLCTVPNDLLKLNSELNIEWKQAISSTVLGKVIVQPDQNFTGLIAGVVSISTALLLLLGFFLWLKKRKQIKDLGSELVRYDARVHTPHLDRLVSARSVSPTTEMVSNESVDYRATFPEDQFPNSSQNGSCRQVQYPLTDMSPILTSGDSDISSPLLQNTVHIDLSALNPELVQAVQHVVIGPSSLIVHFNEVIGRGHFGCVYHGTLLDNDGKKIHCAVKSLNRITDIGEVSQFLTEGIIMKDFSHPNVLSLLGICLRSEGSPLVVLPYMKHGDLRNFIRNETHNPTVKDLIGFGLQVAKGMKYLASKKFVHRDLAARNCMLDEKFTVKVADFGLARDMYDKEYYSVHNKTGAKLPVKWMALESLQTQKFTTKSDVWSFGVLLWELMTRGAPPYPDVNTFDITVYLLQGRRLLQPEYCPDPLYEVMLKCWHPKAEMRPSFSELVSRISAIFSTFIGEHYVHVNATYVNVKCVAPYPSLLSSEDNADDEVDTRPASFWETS
Assay: flow cytometry, C-MET CHO-K1 cells
measurement type: maximum MFI, fold over Isotype IgG4 background

binder: MH1 (antibody, IgG4, V domains shown) VH: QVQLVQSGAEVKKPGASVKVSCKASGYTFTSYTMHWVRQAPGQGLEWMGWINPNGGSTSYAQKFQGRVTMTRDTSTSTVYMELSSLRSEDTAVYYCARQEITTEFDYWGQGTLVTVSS VL: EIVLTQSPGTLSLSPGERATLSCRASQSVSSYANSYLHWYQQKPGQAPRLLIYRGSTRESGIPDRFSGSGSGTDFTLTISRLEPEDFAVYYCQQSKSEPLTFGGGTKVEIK
endpoint value: > 10 fold

binder: MH4 (antibody, IgG4, V domains shown) VH: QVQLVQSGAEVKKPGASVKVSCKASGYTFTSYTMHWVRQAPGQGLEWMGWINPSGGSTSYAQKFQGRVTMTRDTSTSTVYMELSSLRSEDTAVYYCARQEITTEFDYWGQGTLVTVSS VL: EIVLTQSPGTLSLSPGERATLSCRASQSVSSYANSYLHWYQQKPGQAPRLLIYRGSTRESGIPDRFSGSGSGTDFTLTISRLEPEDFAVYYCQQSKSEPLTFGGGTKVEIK
endpoint value: > 10 fold

binder: 07C10 (antibody, IgG4, V domains shown) VH: QVQLVQSGAEVKKPGASVKVSCKASGYIFTAYSMHWVRQAPGQGLEWMGIIKPSNGSTNYAQKFQGRVTMTRDTSTSTVYMELSSLRSEDTAVYYCARAEITTEFDYWGQGTLVTVSS VL: EIVLTQSPGTLSLSPGERATLSCRASQSVESYAQSYLHWYQQKPGQAPRLLIYRGSTRESGIPDRFSGSGSGTDFTLTISRLEPEDFAVYYCQQSKEEPLTFGGGTKVEIK
endpoint value: > 10 fold
